# assay.procedure: Stability of flavonoids and biotransformation products in mouse plasma under different handling conditions
# Type: in vitro ADME, mice
# test.conditions: storage stability; low nominal conc.

molecule	Accuracy Bias Long-term (−70°C; 1 month) / %
O=c1c(O[C@@H]2O[C@H](CO)[C@@H](O)[C@H](O)[C@H]2O)c(-c2ccc(O)c(O)c2)oc2cc(O)cc(O)c12 [Quercetin glucoside, quercetin glucoside]	6.22
O=c1c(O)c(-c2ccc(O)cc2)oc2cc(O)cc(O)c12 [Kaempferol, kaempferol]	−2.77
O=C(O)Cc1ccc(O)cc1 [p-HPAA, para-hydroxyphenylacetic acid]	1.26
O=C(/C=C/c1ccc(O)cc1)OC[C@H]1O[C@@H](Oc2c(-c3ccc(O)cc3)oc3cc(O)cc(O)c3c2=O)[C@H](O)[C@@H](O)[C@@H]1O [Tiliroside, tiliroside]	5.54
O=C(O)Cc1ccc(O)c(O)c1 [DOPAC, 3,4-dihydroxyphenylacetic acid]	1.15
C[C@@H]1O[C@@H](OC[C@H]2O[C@@H](Oc3c(-c4ccc(O)c(O)c4)oc4cc(O)cc(O)c4c3=O)[C@H](O)[C@@H](O)[C@@H]2O)[C@H](O)[C@H](O)[C@H]1O [Rutin, rutin]	2.92
O=C(O)Cc1cccc(O)c1 [m-HPAA, meta-hydroxyphenylacetic acid]	0.90

----------
# assay.procedure: Stability of flavonoids and biotransformation products in mouse plasma under different handling conditions
# Assay type: in vitro ADME, mice
# test.conditions: room temperature (25 °C), 8 h; medium nominal conc. (3.50; 22.18; 2.24; 7.81 µg/mL); n = 6

compound	Observed Conc. 8 h
O=c1c(O)c(-c2ccc(O)cc2)oc2cc(O)cc(O)c12 [Kaempferol, kaempferol]	2.15 ± 0.19 µg/mL
O=C(O)Cc1ccc(O)c(O)c1 [DOPAC, 3,4-dihydroxyphenylacetic acid]	7.86 ± 0.03 µg/mL
C[C@@H]1O[C@@H](Oc2c(-c3ccc(O)c(O)c3)oc3cc(O)cc(O)c3c2=O)[C@H](O)[C@H](O)[C@H]1O [Quercitrin, quercitrin]	22.65 ± 1.85 µg/mL
O=C(/C=C/c1ccc(O)cc1)OC[C@H]1O[C@@H](Oc2c(-c3ccc(O)cc3)oc3cc(O)cc(O)c3c2=O)[C@H](O)[C@@H](O)[C@@H]1O [Tiliroside, tiliroside]	22.84 ± 2.57 µg/mL
O=c1c(O[C@@H]2O[C@H](CO)[C@@H](O)[C@H](O)[C@H]2O)c(-c2ccc(O)c(O)c2)oc2cc(O)cc(O)c12 [Quercetin glucoside, quercetin glucoside]	20.84 ± 1.24 µg/mL
O=C(O)Cc1cccc(O)c1 [m-HPAA, meta-hydroxyphenylacetic acid]	7.98 ± 0.12 µg/mL
O=C(O)Cc1ccc(O)cc1 [p-HPAA, para-hydroxyphenylacetic acid]	7.94 ± 0.11 µg/mL

----------
# assay.procedure: Plasma concentration after a single oral dose of the anxiolytic fraction (HPLC)
# Assay type: in vivo, ICR mice
# test.conditions: mouse, plasma; 120 min after single oral dose of 200 mg/kg of the anxiolytic fraction; ICR mice, n = 10

compound	result.units	concentration at 120 min
O=C(O)Cc1ccc(O)c(O)c1 [DOPAC, 3,4-dihydroxyphenylacetic acid]	ng/mL	6340
O=C(O)Cc1ccc(O)cc1 [p-HPAA, para-hydroxyphenylacetic acid]	ng/mL	5290
O=C(O)Cc1cccc(O)c1 [m-HPAA, meta-hydroxyphenylacetic acid]	ng/mL	4170

----------
Observed Conc. Autosampler (4 °C; 8 h) for assorted compounds
# assay.procedure: Stability of flavonoids and biotransformation products in mouse plasma under different handling conditions
# Assay type: in vitro ADME, mice
# test.conditions: storage stability; low nominal conc. (1.75; 11.02; 1.12; 1.95 µg/mL); n = 6

compound	Observed Conc. Autosampler (4 °C; 8 h) / µg/mL
O=C(/C=C/c1ccc(O)cc1)OC[C@H]1O[C@@H](Oc2c(-c3ccc(O)cc3)oc3cc(O)cc(O)c3c2=O)[C@H](O)[C@@H](O)[C@@H]1O [Tiliroside, tiliroside]	10.58
C[C@@H]1O[C@@H](Oc2c(-c3ccc(O)c(O)c3)oc3cc(O)cc(O)c3c2=O)[C@H](O)[C@H](O)[C@H]1O	11.62
O=C(O)Cc1cccc(O)c1 [m-HPAA, meta-hydroxyphenylacetic acid]	1.93

----------
# assay.procedure: Stability of flavonoids and biotransformation products in mouse plasma under different handling conditions
# Assay type: in vitro ADME, mice
# test.conditions: room temperature (25 °C), 0 h; medium nominal conc.

molecule	Accuracy Bias 0 h (%)
O=C(O)Cc1cccc(O)c1 [m-HPAA, meta-hydroxyphenylacetic acid]	0.13
O=C(O)Cc1ccc(O)c(O)c1 [DOPAC, 3,4-dihydroxyphenylacetic acid]	0.03
O=C(/C=C/c1ccc(O)cc1)OC[C@H]1O[C@@H](Oc2c(-c3ccc(O)cc3)oc3cc(O)cc(O)c3c2=O)[C@H](O)[C@@H](O)[C@@H]1O [Tiliroside, tiliroside]	3.36
O=c1c(O)c(-c2ccc(O)cc2)oc2cc(O)cc(O)c12	0.53
O=C(O)Cc1ccc(O)cc1 [p-HPAA, para-hydroxyphenylacetic acid]	0.65
C[C@@H]1O[C@@H](Oc2c(-c3ccc(O)c(O)c3)oc3cc(O)cc(O)c3c2=O)[C@H](O)[C@H](O)[C@H]1O	−3.39
O=c1c(O[C@@H]2O[C@H](CO)[C@@H](O)[C@H](O)[C@H]2O)c(-c2ccc(O)c(O)c2)oc2cc(O)cc(O)c12 [Quercetin glucoside, quercetin glucoside]	5.94
C[C@@H]1O[C@@H](OC[C@H]2O[C@@H](Oc3c(-c4ccc(O)c(O)c4)oc4cc(O)cc(O)c4c3=O)[C@H](O)[C@@H](O)[C@@H]2O)[C@H](O)[C@H](O)[C@H]1O	3.17

----------
# assay.procedure: Stability of flavonoids and biotransformation products in mouse plasma under different handling conditions
# Assay type: in vitro ADME, mice
# test.conditions: storage stability; medium nominal conc.
result.type: Accuracy Bias Long-term (−70°C; 1 month) (%)

compound	result.units	observed.value
O=c1c(O[C@@H]2O[C@H](CO)[C@@H](O)[C@H](O)[C@H]2O)c(-c2ccc(O)c(O)c2)oc2cc(O)cc(O)c12 [Quercetin glucoside, quercetin glucoside]	%	7.26
O=C(O)Cc1ccc(O)c(O)c1 [DOPAC, 3,4-dihydroxyphenylacetic acid]	%	0.58
O=C(/C=C/c1ccc(O)cc1)OC[C@H]1O[C@@H](Oc2c(-c3ccc(O)cc3)oc3cc(O)cc(O)c3c2=O)[C@H](O)[C@@H](O)[C@@H]1O [Tiliroside, tiliroside]	%	3.42
O=C(O)Cc1cccc(O)c1 [m-HPAA, meta-hydroxyphenylacetic acid]	%	2.18
O=c1c(O)c(-c2ccc(O)cc2)oc2cc(O)cc(O)c12	%	4.13
C[C@@H]1O[C@@H](OC[C@H]2O[C@@H](Oc3c(-c4ccc(O)c(O)c4)oc4cc(O)cc(O)c4c3=O)[C@H](O)[C@@H](O)[C@@H]2O)[C@H](O)[C@H](O)[C@H]1O	%	−0.45
O=C(O)Cc1ccc(O)cc1 [p-HPAA, para-hydroxyphenylacetic acid]	%	1.01

----------
# assay.procedure: Plasma concentration after a single oral dose of the anxiolytic fraction (HPLC)
# Assay type: in vivo, ICR mice
# test.conditions: mouse, plasma; 480 min after single oral dose of 200 mg/kg of the anxiolytic fraction; ICR mice, n = 10
# reported concentration at 480 min; entries follow

molecule	concentration at 480 min
O=C(O)Cc1ccc(O)c(O)c1 [DOPAC, 3,4-dihydroxyphenylacetic acid]	6100 ng/mL
O=C(O)Cc1cccc(O)c1 [m-HPAA, meta-hydroxyphenylacetic acid]	4040 ng/mL
O=C(O)Cc1ccc(O)cc1 [p-HPAA, para-hydroxyphenylacetic acid]	5080 ng/mL

----------
# assay.procedure: Stability of flavonoids and biotransformation products in mouse plasma under different handling conditions
# Assay type: in vitro ADME, mice
# test.conditions: storage stability; low nominal conc. (1.75; 11.02; 1.12; 1.95 µg/mL); n = 6
Here the recorded Observed Conc. Autosampler (4 °C; 8 h) is given for each entry.

molecule	Observed Conc. Autosampler (4 °C; 8 h) / µg/mL
O=C(O)Cc1ccc(O)cc1 [p-HPAA, para-hydroxyphenylacetic acid]	1.93
O=c1c(O)c(-c2ccc(O)cc2)oc2cc(O)cc(O)c12	1.21
O=C(O)Cc1ccc(O)c(O)c1 [DOPAC, 3,4-dihydroxyphenylacetic acid]	1.91
O=c1c(O[C@@H]2O[C@H](CO)[C@@H](O)[C@H](O)[C@H]2O)c(-c2ccc(O)c(O)c2)oc2cc(O)cc(O)c12 [Quercetin glucoside, quercetin glucoside]	11.22
C[C@@H]1O[C@@H](OC[C@H]2O[C@@H](Oc3c(-c4ccc(O)c(O)c4)oc4cc(O)cc(O)c4c3=O)[C@H](O)[C@@H](O)[C@@H]2O)[C@H](O)[C@H](O)[C@H]1O	1.86

----------
# assay.procedure: Pharmacokinetic analysis, two-compartment model (PKSolver)
# Type: in vivo, ICR mice
# test.conditions: mouse; oral 200 mg/kg anxiolytic fraction, ICR mice plasma, two-compartment model
Listing of recorded Tmax by entry.
result.type: Tmax (min)

compound	result.type	observed.value
O=C(O)Cc1cccc(O)c1 [m-HPAA, meta-hydroxyphenylacetic acid]	Tmax	14.1
O=C(O)Cc1ccc(O)cc1 [p-HPAA, para-hydroxyphenylacetic acid]	Tmax	11.2
O=C(O)Cc1ccc(O)c(O)c1 [DOPAC, 3,4-dihydroxyphenylacetic acid]	Tmax	12.9
